Molecular target: full length N-terminally FLAG-tagged PARP1 (Homo sapiens)
Sequence (P09874 whole entry): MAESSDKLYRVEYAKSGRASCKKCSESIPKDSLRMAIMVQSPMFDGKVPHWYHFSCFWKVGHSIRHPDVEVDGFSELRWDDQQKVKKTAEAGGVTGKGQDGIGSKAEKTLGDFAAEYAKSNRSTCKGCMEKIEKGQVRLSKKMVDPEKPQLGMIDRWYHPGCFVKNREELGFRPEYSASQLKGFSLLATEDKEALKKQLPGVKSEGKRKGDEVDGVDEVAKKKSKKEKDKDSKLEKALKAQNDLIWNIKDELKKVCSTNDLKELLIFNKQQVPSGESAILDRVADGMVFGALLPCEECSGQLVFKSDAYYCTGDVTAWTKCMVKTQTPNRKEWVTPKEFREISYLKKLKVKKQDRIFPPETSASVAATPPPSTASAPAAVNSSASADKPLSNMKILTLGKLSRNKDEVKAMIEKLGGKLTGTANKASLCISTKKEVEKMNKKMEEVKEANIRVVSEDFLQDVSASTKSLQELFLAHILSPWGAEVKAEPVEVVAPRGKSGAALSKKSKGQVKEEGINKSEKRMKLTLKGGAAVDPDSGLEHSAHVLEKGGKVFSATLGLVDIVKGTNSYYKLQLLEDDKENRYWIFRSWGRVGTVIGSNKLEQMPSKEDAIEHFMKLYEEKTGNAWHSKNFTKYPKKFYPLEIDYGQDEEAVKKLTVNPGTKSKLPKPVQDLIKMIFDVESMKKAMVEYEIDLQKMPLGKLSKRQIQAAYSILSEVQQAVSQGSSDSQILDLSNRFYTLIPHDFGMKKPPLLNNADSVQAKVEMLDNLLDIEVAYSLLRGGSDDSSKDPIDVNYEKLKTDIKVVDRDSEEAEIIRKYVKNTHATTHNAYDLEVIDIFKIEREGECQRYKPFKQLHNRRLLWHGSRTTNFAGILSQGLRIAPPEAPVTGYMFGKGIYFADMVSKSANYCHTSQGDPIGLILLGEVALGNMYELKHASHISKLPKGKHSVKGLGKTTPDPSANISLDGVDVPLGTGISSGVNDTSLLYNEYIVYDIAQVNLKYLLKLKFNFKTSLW
Assay: PARP1 probe displacement HTRF assay
Settings: PARP1 HTRF, binned Kd, PARP1 probe displacement HTRF
# key: entry, value: Kd

The cases that follow already have their Kd on record.
Q. Please give measured Kd of the following entry: CNC(=O)c1ccc(N2CCC(N3CCC(c4nc5c(c(=O)[nH]4)CCCN5C)C3)CC2)cn1 (single isomer, unassigned) [Compound 208b]
A. < 10 nM

Q. Determine its reported Kd: CCc1cnc(C2CCN(C3CCN(c4ccc(C(=O)NC)nc4)CC3)C2)[nH]c1=O (racemic) [Compound 42rac]
A. < 10 nM

Q. Item CCc1cnc(C2CCN(C(=O)C3CCN(c4ccc(C(=O)NC)nc4)CC3)CC2)[nH]c1=O [Compound 41] : provide Kd
A. 100 to 1000 nM

Q. Please look at this compound and report its Kd: CNC(=O)c1ccc(N2CCC(N3CCC(c4cc5cccc(F)c5c(=O)[nH]4)C3)CC2)c(F)n1 (single isomer, unassigned) [Compound 184a]
A. < 10 nM

Q. Tell me measured Kd for CNC(=O)c1ccc(N2CCC(N3CC4CC(c5nc6ccccc6c(=O)[nH]5)(C4)C3)CC2)cn1 [Compound 168] please.
A. < 10 nM

Read the next record carefully.
Q. State its Kd: CCc1ccc(C2CCCN(C3CCN(c4ccc(C(=O)NC)nc4)CC3)C2)[nH]c1=O (single isomer, unassigned) [Compound 53a]
A. < 10 nM
